meta.source: PubChem BioAssay (NCI)

# Tested on: SF-268 CNS
# Assay Protocol: NCI tumour cell line growth inhibition, 48 h; in the data active = GI50 below about 0.43 µM; inactive = the rest
Outcome (select one): active, inactive

Could you please tell me the result logged for "NS(=O)(=O)c1ccc(Nc2ncc(-c3ccccc3)o2)cc1" in this assay?
inactive

Could you please tell me the result logged for "CCN(CCCNC(=O)Cc1cc(=O)oc2cc(N(C)C)ccc12)CCNc1ccnc2cc(Cl)ccc12" in this assay?
inactive

Could you please tell me the result logged for "O=C(NNC(=O)C1CCN(S(=O)(=O)c2ccc(-c3ccccc3)cc2)CC1)c1ccc(C(F)(F)F)cc1" in this assay?
inactive

Could you please tell me the result logged for "COc1ccc(CN2CCc3c(Sc4ccccc4)nc(N)nc3C2=O)c(OC)c1" in this assay?
inactive

Could you please tell me the result logged for "COc1ccc(/C=C2\CS(=O)(=O)C/C(=C\c3ccc(OC)cc3)C2=O)cc1" in this assay?
inactive

Could you please tell me the result logged for "CC(C)(C)CC(C)(C)c1ccc(OCCSC(=N)N)cc1" in this assay?
inactive

Could you please tell me the result logged for "O=C1c2ccc3c4c(ccc(c24)C(=O)N1CCCNCc1ccccc1F)C(=O)N(CCCNCc1ccccc1F)C3=O" in this assay?
active

Could you please tell me the result logged for "Cc1nn(-c2ccccc2)c(-n2ccnc2)c1/C=N/Nc1nc(-c2ccc(Cl)c(Cl)c2)cs1" in this assay?
inactive

Could you please tell me the result logged for "Cc1nnc([S-])o1.[Au+].c1ccc([PH+](c2ccccc2)c2ccccc2)cc1" in this assay?
inactive

Could you please tell me the result logged for "COc1cc(-c2cncn2-c2ccc(-c3nc4ccc(F)cc4s3)cc2)ccc1F" in this assay?
inactive

Could you please tell me the result logged for "O=C(NC1CCCCC1)NS(=O)(=O)c1ccc(-n2nc3c(c2-c2cccs2)Cc2ccccc2-3)cc1" in this assay?
inactive

Could you please tell me the result logged for "CCCCC/C=C/C(=O)CCc1ccc(O)c(OC)c1" in this assay?
inactive

Could you please tell me the result logged for "CC[C@@]1(O)C(=O)OCc2c1cc1n(c2=O)Cc2cc3c([N+](=O)[O-])c(OC)ccc3nc2-1" in this assay?
active

Could you please tell me the result logged for "CCSc1ccc2c(c1)N(CCCN1CCN(C)CC1)c1ccccc1S2" in this assay?
inactive

###

# System: SNB-19 CNS
# Assay Protocol: NCI tumour cell line growth inhibition, 48 h
Where a SMILES comes first, the peptide text is derived from it. The star is where a group is joined. CH2Cl = ClC*
Measurement Name: TGI

I have this molecule here, "COc1ccc(/C=C2\CS(=O)(=O)C/C(=C\c3ccc(OC)cc3)C2=O)cc1" , and I need its recorded TGI.
18.1 µM

I have this molecule here, "Fc1cc(-c2cc(-c3ccccc3)n[nH]2)c(Cl)cc1Cl" , and I need its recorded TGI.
> 100 µM

I have this molecule here, CC(=O)NC(CC(C)C)C(=O)NC(Cc1ccccc1)C(=O)CCl (stereo not drawn) (Ac-Leu-Phe-CH2Cl; configuration not given here) , and I need its recorded TGI.
37.7 µM

I have this molecule here, "O=C1C2=C(CCCC2)Nc2cccc3ncn1c23" , and I need its recorded TGI.
> 100 µM

I have this molecule here, NC(=O)c1ncn2c1NCC1OC2C(O)C1O (stereo not given) , and I need its recorded TGI.
> 100 µM

I have this molecule here, "CNCCCNc1c2cc(OC)ccc2nc2cccc([N+](=O)[O-])c12" , and I need its recorded TGI.
0.519 µM

I have this molecule here, "CNc1cc(N)ccc1C(=O)N1CCC[C@H]1CO" , and I need its recorded TGI.
> 100 µM

I have this molecule here, CCC#CCCCCCCCCC(F)C(=O)O (stereo not given) , and I need its recorded TGI.
> 100 µM

I have this molecule here, "CSc1nc(-c2ccccc2)c(C#N)c(=O)[nH]1" , and I need its recorded TGI.
> 100 µM

I have this molecule here, CC(C)=CCc1c(O)c(CC2=C(O)C(C)=C(O)C(CC=C(C)C)(C(=O)C(C)C)C2=O)c(O)c(C(=O)C(C)C)c1O (stereo not given) , and I need its recorded TGI.
> 31 µM
